Each record here notes measured Kd.
- Target: RNA A
- Protocol Description: Thiazole orange fluorescent intercalator displacement
- Experimental Setup: read-out: Dissociation constants (FID); apparent KD from IC50, competitive model; 50 mM Bis-Tris·HCl pH 7.0, 100 mM NaCl, 10 mM MgCl2, 50 nM thiazole orange, 100 nM RNA A, 25 °C; average of three independent measurements ± SD

For `NC[C@@H]1O[C@H](O[C@H]2[C@@H](O)[C@H](O[C@H]3[C@@H](O)[C@H](N)C[C@H](N)[C@H]3O[C@H]3O[C@H](CN)[C@@H](O)[C@H](O)[C@H]3N)O[C@@H]2CO)[C@H](N)[C@@H](O)[C@@H]1O` the compound record lists Kd as > 60 µM

# evaluate next
For `NC[C@H]1O[C@H](O[C@H]2[C@H](O)[C@@H](O[C@H]3O[C@H](CO)[C@@H](O)[C@H](N)[C@H]3O)[C@H](N)C[C@@H]2N)[C@H](O)[C@@H](O)[C@@H]1O` the compound record lists Kd as > 100 µM
